Documented melting point across a set of compounds

{"ITEM SMILES": "COc1snc(OCC#CI)c1C#N", "melting point": "159 to 160 °C"}
{"ITEM SMILES": "COCn1cnc(Cl)c1Cl", "melting point": "41 to 44 °C"}
{"ITEM SMILES": "CC(C)CNc1nc(-c2ccccc2)c(Cl)n2c(-c3ccc(C(=O)NC4CC4)cc3)cnc12", "melting point": "180 °C"}
{"ITEM SMILES": "O=C(C=Cc1ccc2c(c1)OCO2)c1cccc(O)c1", "melting point": "188 to 189 °C"}

* * *

melting point values by entry
REPORTED METRIC: melting point

{"COMPOUND": "COc1ccc(C(NCCC(c2ccccc2)c2ccccc2)c2cccc(Nc3c(N)c(=O)c3=O)c2)cc1 (stereo not drawn)", "OBSERVED RESULT": "132 to 134 °C"}
{"COMPOUND": "CSc1c(O[C@H]2CC[C@@H](N(C)C)CC2)ccc2[nH]ncc12", "OBSERVED RESULT": "139 to 140 °C"}
{"COMPOUND": "COc1cc(OC)c(/C=C/S(=O)(=O)Cc2cnc(OC)c([N+](=O)[O-])c2)c(OC)c1", "OBSERVED RESULT": "183 to 186 °C"}
{"COMPOUND": "Cc1cc(C(F)(F)F)ccc1NC(=O)c1c(C)cccc1NC(=O)C(C)C", "OBSERVED RESULT": "> 230 °C"}
{"COMPOUND": "CC(=O)Nc1cc2c(cc1[N+](=O)[O-])OCO2", "OBSERVED RESULT": "207 to 208 °C"}
{"COMPOUND": "CCCCCCCCCCCCCCCCCCOc1cccc(C(=O)O)c1OCCCOc1ccc(O)cc1", "OBSERVED RESULT": "81 to 83 °C"}
{"COMPOUND": "COc1ccc(C2=NN(C3CCN(C(=O)c4ccccc4)CC3)C(=O)CC2)cc1OC", "OBSERVED RESULT": "152 to 154 °C"}
{"COMPOUND": "CC(=O)NCCn1nnnc1Sc1ccc([N+](=O)[O-])cc1[N+](=O)[O-]", "OBSERVED RESULT": "197 to 198 °C"}
{"COMPOUND": "COC(=O)COc1cc(C)ccc1C=O", "OBSERVED RESULT": "63 to 64 °C"}
{"COMPOUND": "Nc1ccc2c(c1)C(C(=O)Oc1ccccc1)CCC2 (stereo not drawn)", "OBSERVED RESULT": "89 to 90 °C"}
{"COMPOUND": "CCOCc1nc2c(N)nc3cc(OCCCc4cccc(N)c4)ccc3c2n1CC(C)(C)O", "OBSERVED RESULT": "164 to 166 °C"}
{"COMPOUND": "CC(C)(C)C(NC(=O)c1ccc(-c2ccco2)cc1)NC(=NC#N)Nc1cccnc1 (stereo not drawn)", "OBSERVED RESULT": "181 to 182 °C"}
{"COMPOUND": "Cc1nc(-c2ccc(C(F)(F)F)cc2)sc1CN(C)c1ccc(OCC(=O)O)c(F)c1", "OBSERVED RESULT": "113 to 114 °C"}
